# test_protocol: elution rate: rifampicin/tobramycin content remaining on the graft
# Format: in vivo
# experimental_setup: dog, explanted graft, other: graft implanted end to end in the infrarenal aorta, graft harvested from dog, Implant Duration 21 Days; one line per dog; read-out: Tobramycin Content, Total
observed_property: concentration at 21 days

The recorded concentration at 21 days for entry NC[C@H]1O[C@H](O[C@H]2[C@H](O)[C@@H](O[C@H]3O[C@H](CO)[C@@H](O)[C@H](N)[C@H]3O)[C@H](N)C[C@@H]2N)[C@H](N)C[C@@H]1O equals < 400 ng/g

* * *

# test_protocol: elution rate: rifampicin/tobramycin content remaining on the graft
# Format: in vivo
# experimental_setup: dog, explanted graft, other: graft implanted end to end in the infrarenal aorta, graft harvested from dog, Implant Duration 14 Days; one line per dog; read-out: Rifampicin Content, 2nd Extraction
observed_property: concentration at 14 days

get_value(item= CO[C@H]1/C=C/O[C@@]2(C)Oc3c(C)c(O)c4c(O)c(c(/C=N/N5CCN(C)CC5)c(O)c4c3C2=O)NC(=O)/C(C)=C\C=C\[C@H](C)[C@H](O)[C@@H](C)[C@@H](O)[C@@H](C)[C@H](OC(C)=O)[C@@H]1C , readout=concentration at 14 days) returns < 100 ng/g
